Molecular target: ETS1 (UniProt P14921)
Sequence: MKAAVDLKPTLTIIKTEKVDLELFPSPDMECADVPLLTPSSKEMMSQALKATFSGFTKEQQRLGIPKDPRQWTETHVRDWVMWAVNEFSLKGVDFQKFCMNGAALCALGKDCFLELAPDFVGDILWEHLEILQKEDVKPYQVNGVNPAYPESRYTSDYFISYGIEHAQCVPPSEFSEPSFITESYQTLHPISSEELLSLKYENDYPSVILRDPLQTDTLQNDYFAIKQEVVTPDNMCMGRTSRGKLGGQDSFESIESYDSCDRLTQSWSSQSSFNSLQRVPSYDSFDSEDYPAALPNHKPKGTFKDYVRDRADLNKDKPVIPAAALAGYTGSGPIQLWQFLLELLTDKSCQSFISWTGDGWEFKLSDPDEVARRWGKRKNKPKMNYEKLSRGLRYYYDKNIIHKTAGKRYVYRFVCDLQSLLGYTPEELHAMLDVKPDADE
Test: ETS1 binding intensity (PBM fluorescence), ETS1 alone (arbitrary fluorescence units); higher = stronger binding
Conditions: ETS1 concentration 1 nM; RUNX1 concentration 0 nM
Listing of entries alongside the reported ETS1 binding intensity.
REPORTED ENDPOINT: ETS1 binding intensity

> print(dat)
                        sequence.record           study.system  readout.number
1  ATACTGAGTCATTTCCTGTGGTGTTATTGTGTTGTA  ETS1 (UniProt P14921)            1760
2  AGCAGATTTGCTGCAGGAAACCACCGAGTCTCACGG  ETS1 (UniProt P14921)            1130
3  AAGTTGATTTCCGGGTAGTCTGTGGTTTCCTAATCA  ETS1 (UniProt P14921)            1040
4  AACACTATTTCCTTTCTTGCTGCCCACATTTTAACA  ETS1 (UniProt P14921)             520
5  TGGCCAGGAAGCCACTCGATTGCCGGCGCCCGCAGC  ETS1 (UniProt P14921)             415
6  TATCAATAAGGAAGTACAATCACCAAACCACAAGCC  ETS1 (UniProt P14921)             619
